// values below are reported koff
- target_or_test_system: T1, human GFRα3 expressed with a C-terminal mFc tag (human)
- T1 construct: also called hGFRα3-mFc
- T1 chain: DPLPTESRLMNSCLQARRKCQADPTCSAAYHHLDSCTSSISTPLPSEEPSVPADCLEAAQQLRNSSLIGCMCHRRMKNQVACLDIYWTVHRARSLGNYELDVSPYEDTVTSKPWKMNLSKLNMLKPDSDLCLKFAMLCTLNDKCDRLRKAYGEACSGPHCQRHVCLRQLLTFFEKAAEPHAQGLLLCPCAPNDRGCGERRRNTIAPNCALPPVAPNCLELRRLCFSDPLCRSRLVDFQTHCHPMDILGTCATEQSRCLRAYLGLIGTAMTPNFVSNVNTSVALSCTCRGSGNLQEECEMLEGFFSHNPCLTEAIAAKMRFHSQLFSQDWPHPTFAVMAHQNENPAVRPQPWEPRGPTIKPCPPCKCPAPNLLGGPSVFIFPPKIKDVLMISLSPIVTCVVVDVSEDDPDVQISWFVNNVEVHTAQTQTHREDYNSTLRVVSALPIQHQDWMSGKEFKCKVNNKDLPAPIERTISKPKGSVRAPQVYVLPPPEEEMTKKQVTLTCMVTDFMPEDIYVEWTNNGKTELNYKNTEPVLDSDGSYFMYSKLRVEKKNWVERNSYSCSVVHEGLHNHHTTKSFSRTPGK
- test_details: SPR, Ab captured, 25C
Supply the numeric figure in s⁻¹, leaving out any unit text.

H4H2291S (antibody, human IgG4, V domains shown, human IgG4 Fc (H4H)) VH: EVQLVESGGGLVQPGESLRLSCAASGFTFSNYAMSWVRQAPGKGLEWVSVISGSGGSTYYADSVKGRFTMSRDNSKNTLYLQMNSLRAEDTAVYYCAKPPSRAARYFNYGMDVWGQGTTVTVSS VL: AIRMTQSPSSVSASVGDRVTITCRASQGISSWLAWYQQKPGKAPKLLIYAASSLQSGVPSRFSGSGSGTDFTLTISSLQPEDFATYYCQQANSFPFTFGGGTKVEIK: 4.78e-06
H4H2350P (antibody, human IgG4, V domains shown, human IgG4 Fc (H4H)) VH: QVQLQESGPGLVKPSETLSLTCTVSGGSISTYYWSWFRQPPGKGLEWIGYIYYSGSTNHNPSLKSRVTISVDTSKNQFSLKLRSVTAADTAVYYCARVGPVGWGSWGNFDYWGQGTLVTVSS VL: DIQLTQSPSFLSASVGDRVTITCWASQGISSYLAWSQQKPGKAPKLLIYAASTLQSGVPSRFSGSGSGTEFTLTISSLQPEDFATYYCQQLNSYPWTFGQGTKVEIK: 2.12e-05
H4H2354S (antibody, human IgG4, V domains shown, human IgG4 Fc (H4H); also called H4H2354S-1) VH: QVQLVESGGGVVQPGRSLRLSCAASGFSFSDYVMHWVRQAPGKGLEWVASIWFDGSNEFYADSVKGRFTISRDNSKNTLFLQMNSLRAEDTAVYYCAKKGVLVATSAFDIWGQGTMVTVSS VL: DIQLTQSPSSLSASVGDRVTITCRASQSINNYLNWYHQKPGKAPKLLIYAASSLQSGVPSRFSGSGSGTDYTLTISSLQPEDFGNYYCQQSYRTSMYTFGQGTKVEIK: 1.09e-05

Shifting focus to the binder that follows.
Query (binder): H4H2346S (antibody, human IgG4, V domains shown, human IgG4 Fc (H4H)) VH: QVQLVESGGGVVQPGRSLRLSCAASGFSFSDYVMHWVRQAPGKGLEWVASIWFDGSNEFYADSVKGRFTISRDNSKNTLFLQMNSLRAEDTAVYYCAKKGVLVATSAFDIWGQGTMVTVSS VL: EIVMTQSPSSLSASVGDRVTITCRASQSINNYLNWYHQKPGKAPKLLIYAASSLQSGVPSRFSGSGSGTDYTLTISSLQPEDFGNYYCQQSYRTSMYTFGQGTKVEIK ; field requested: koff 1.44e-05
